Target: hTLR7 (Homo sapiens)
Construct: expressed in transfected cells; host or cells: HEK-Blue hTLR7 reporter cell line
Sequence (Q9NYK1 27-1049): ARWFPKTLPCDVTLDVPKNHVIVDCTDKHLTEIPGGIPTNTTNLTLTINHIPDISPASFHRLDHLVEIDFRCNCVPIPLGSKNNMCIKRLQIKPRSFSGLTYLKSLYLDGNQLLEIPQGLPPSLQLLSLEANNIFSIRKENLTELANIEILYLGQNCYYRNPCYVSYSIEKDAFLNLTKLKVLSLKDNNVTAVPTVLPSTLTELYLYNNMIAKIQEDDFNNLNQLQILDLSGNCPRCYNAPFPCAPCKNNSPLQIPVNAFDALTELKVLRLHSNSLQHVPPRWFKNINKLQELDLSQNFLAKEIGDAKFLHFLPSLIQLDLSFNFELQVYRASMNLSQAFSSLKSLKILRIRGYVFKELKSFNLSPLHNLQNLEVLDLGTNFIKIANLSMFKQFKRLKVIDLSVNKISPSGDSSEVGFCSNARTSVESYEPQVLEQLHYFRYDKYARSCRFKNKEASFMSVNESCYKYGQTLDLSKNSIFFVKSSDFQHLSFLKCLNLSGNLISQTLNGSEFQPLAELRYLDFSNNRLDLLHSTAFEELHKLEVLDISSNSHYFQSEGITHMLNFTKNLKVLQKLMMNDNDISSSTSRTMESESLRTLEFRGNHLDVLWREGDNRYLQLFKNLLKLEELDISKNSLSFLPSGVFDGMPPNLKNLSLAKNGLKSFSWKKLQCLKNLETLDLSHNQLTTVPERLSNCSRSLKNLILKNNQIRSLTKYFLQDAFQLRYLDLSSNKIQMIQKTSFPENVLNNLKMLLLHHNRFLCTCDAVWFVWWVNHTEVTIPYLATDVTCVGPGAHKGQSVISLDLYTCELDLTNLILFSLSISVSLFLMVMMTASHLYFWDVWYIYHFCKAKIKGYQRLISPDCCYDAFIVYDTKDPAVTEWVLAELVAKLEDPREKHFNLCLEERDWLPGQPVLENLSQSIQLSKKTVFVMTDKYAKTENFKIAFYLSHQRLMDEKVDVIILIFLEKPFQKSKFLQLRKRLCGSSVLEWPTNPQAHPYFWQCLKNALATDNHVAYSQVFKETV
Assay: HEK-Blue hTLR7 reporter assay (NF-kB-induced SEAP, Quanti-Blue)
Format: cell-based
Conditions: Table 14; read-out: TLR7 EC50
Procedure: HEK-Blue™ hTLR7 cells were incubated in HEK-Blue™ Detection medium and stimulated with increasing concentrations of TLR7 or TLR8 or TLR7/8 agonists. […] The EC50 was determined from dose-response curve using Prism Software.
# reported pEC50; entries follow
// pEC50: -log10(molar conc.)

Qu. Enter measured pEC50, system hTLR7 (Homo sapiens), for the molecule shown: CCCCOc1cc2c([nH]c(=O)n2Cc2ccc(CN3CCC(CCNC(=O)c4ccc(N)cc4)CC3)cc2)c(N)n1
Ans. 8.59

Qu. Enter measured pEC50, system hTLR7 (Homo sapiens), for the molecule shown: CCCCOc1nc(N)c2[nH]c(=O)n(Cc3ccc(CN4CCCCC4)cc3)c2n1
Ans. 8.68

Qu. Enter measured pEC50, system hTLR7 (Homo sapiens), for the molecule shown: CCCCOc1nc(N)c2[nH]c(=O)n(Cc3ccc(CN4CCC(C5CCN(C(=O)CCOCCON)CC5)CC4)cc3)c2n1
Ans. 7.14

Qu. Enter measured pEC50, system hTLR7 (Homo sapiens), for the molecule shown: CCCCOc1nc(N)c2[nH]c(=O)n(Cc3ccc(CN4CCC(c5ccc(N)cc5)CC4)cc3)c2n1
Ans. 7.94

Reference source for all entries: patent US20230302150A1
